Target: Glucose-dependent insulinotropic receptor (Homo sapiens)
Test: Agonist activity at human GPR119 expressed in HEK293 cells assessed as increase in cAMP stimulation measured after 60 mins by TR-FRET assay relative to oleoylethanolamide
Assay type: functional, cell-based
measure: %max (%)

A = CC(C)(C)OC(=O)N1CC2CC(Oc3ncnc(Nc4ccc(S(C)(=O)=O)cc4F)c3[N+](=O)[O-])C1C2 (centres undefined)
B = CC(C)(C)OC(=O)N1CC2CC1CC2Nc1ncnc(Nc2ccc(S(C)(=O)=O)cc2F)c1[N+](=O)[O-] (stereo in doubt; 27i)
Input line: For A and B , which recorded %max is lower? Kindly state the label of the option you pick.
Output line: A

P = CC(C)(C)OC(=O)N1CC2CCC1CC2Oc1ncnc(Nc2ccc(S(C)(=O)=O)cc2F)c1[N+](=O)[O-] (centres undefined)
Q = CC(C)(C)OC(=O)N1CC2CC(Nc3ncnc(Nc4ccc(S(C)(=O)=O)cc4F)c3[N+](=O)[O-])C1C2 (stereo in doubt; 27e)
Input line: Between P and Q , whose measured %max reads higher? Kindly state the label of the option you pick.
Output line: Q
(Q: 76.7%, P: 32.9%)
